Experiment: Clinical study of the effect of food and antacid on pharmacokinetics after a single oral 40 mg tablet in healthy subjects
Format: in vivo, human
Conditions: both sexes, human, plasma, po, 40 mg, 2 hours after food (high-fat breakfast); single 40 mg oral tablet; mean
property: Cmax (ng/mL)
One number for each entry, in ng/mL.

Problem: Looking for the measured Cmax of CCOC(=O)N[C@@H]1CC[C@@H]2[C@@H](C1)C[C@H]1C(=O)O[C@H](C)[C@H]1[C@H]2/C=C/c1ccc(-c2cccc(F)c2)cn1 [SCH 530348] , can you help?
Solution: 355
